protocolText: in vivo
appliedConditions: rat, ip
measureName: LD50 at 6 h (mg/kg)
Give a bare numeral; the unit mg/kg is implied.

The following compounds have reported results that may help.
CC(=O)[C@]1(COC(=O)NCC(C)C)C[C@@H]2C=C[C@H]1C2 (relative stereo): 482
CCC(C)NC(=O)OC[C@@]1(C(C)=O)C[C@@H]2C=C[C@H]1C2 (stereo partly drawn): 150
CC(=O)[C@]1(COC(=O)NC2CC2)C[C@@H]2C=C[C@H]1C2 (relative stereo): 187

query: Return reported LD50 at 6 h; argument: CC(=O)[C@]1(COC(=O)NC(C)C)C[C@@H]2CC[C@H]1C2 (relative stereo)
result: 464

query: Param item = CCCNC(=O)OC[C@@]1(C(C)=O)C[C@@H]2C=C[C@H]1C2 (relative stereo) ; retrieve measured LD50 at 6 h.
result: 392

query: Query (compound): CC(=O)[C@]1(COC(=O)NC2CCCC2)C[C@@H]2C=C[C@H]1C2 (relative stereo) ; field requested: LD50 at 6 h
result: 247

query: Sample CCCNC(=O)OCC1(C(C)=O)CC=CCC1 (stereo not drawn) — what was its LD50 at 6 h?
result: 215

query: So what's the measured LD50 at 6 h for this one? CC(=O)[C@]1(COC(=O)NC(C)C)C[C@@H]2C=C[C@H]1C2 (relative stereo)
result: 137

----------
Test system: rats
protocolText: Hypnotic action on intraperitoneal administration (period of absence of the righting reflex, duration of sleep)
Format: in vivo, female Sprague-Dawley rats
appliedConditions: Rattus norvegicus, ip, 1 h; dose which causes a 60 minute period of sleep; intraperitoneal, rats; regression analysis
Known ED (60 min sleep) of a selection of molecules
Your answer is read as mg/kg, so omit the unit and give the number.

Answered examples (5):
CC(=O)[C@]1(COC(=O)NC(C)C)C[C@@H]2C=C[C@H]1C2 (relative stereo) [Example 7]: 20.7
CC(=O)[C@]1(COC(=O)NCC(C)C)C[C@@H]2C=C[C@H]1C2 (relative stereo) [Example 87]: 46.7
CCCNC(=O)OCC1(C(C)=O)CC=CCC1 (stereo not shown) [Example 52]: 28.5
CC(=O)[C@]1(COC(=O)NC(C)C)C[C@@H]2CC[C@H]1C2 (relative stereo) [Example 36]: 37.6
CC(=O)[C@]1(COC(=O)NC2CCCC2)C[C@@H]2C=C[C@H]1C2 (relative stereo) [Example 15]: 46.4

query: Requested read-out: ED (60 min sleep). Entry: CC(=O)[C@]1(COC(=O)NC(C)C2CC2)C[C@@H]2C=C[C@H]1C2 (stereo partly shown) [Example 98]
result: 30.3

query: # get_value(readout='ED (60 min sleep)', item= CCCNC(=O)OC[C@@]1(C(C)=O)C[C@@H]2C=C[C@H]1C2 (relative stereo) [Example 4] )
result: 21.5

query: // lookup ED (60 min sleep) for CCC(C)NC(=O)OC[C@@]1(C(C)=O)C[C@@H]2C=C[C@H]1C2 (stereo partly shown) [Example 88]
result: 30.8

query: Query: ED (60 min sleep); subject: C#CC1(OC(N)=O)CCCCC1 [Ethinamate, 1-ethynyl-cyclohexyl carbamate, reference compound]
result: 69.3

query: // query ED (60 min sleep) value for entry CC(=O)[C@]1(COC(=O)NC2CC2)C[C@@H]2C=C[C@H]1C2 (relative stereo) [Example 109]
result: 27.2
